# assay_target: human FLT-3 (Arg571-Ser993) (Homo sapiens)
# Construct: human FLT-3 (Arg571-Ser993); GST (N); purchased Cell Signaling Technology; host or cells: baculovirus expression system
# Sequence (P36888 571-993): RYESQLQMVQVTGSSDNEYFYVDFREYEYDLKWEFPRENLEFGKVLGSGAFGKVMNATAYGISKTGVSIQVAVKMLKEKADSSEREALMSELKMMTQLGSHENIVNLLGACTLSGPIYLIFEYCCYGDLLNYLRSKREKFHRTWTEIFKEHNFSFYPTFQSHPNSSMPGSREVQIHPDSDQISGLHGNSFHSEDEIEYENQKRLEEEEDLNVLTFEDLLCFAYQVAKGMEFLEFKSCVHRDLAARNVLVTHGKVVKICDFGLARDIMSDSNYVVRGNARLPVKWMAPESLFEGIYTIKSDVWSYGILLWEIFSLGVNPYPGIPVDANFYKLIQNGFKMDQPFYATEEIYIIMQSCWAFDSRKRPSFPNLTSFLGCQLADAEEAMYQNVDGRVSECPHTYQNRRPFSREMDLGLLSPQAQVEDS
# method_summary: FLT-3 kinase assay (HTScan kit, DELFIA)
# Format: biochemical
# stated_conditions: compound at 1 μM; read-out: FLT-3 1 μM, % of inhibition relative to control
experimental_endpoint: inhibition at 1 µM (%)

O=C1Nc2ccc(F)cc2/C1=C\c1cc2cccccc-2c1F :: 53

a. O=C1Nc2ccc(F)cc2/C1=C\c1ccccc2cccc1-2
b. Cc1cc(/C=C2\C(=O)Nc3ccc(F)cc32)c2ccccc(OCCCN(C)C)c1-2
From the items above, decide which of a and b has the lower inhibition at 1 µM reading. Your choice should be expressed through its label.
a
(a: 44.2%, b: 98.4%)
